// data source = paper PMC5540273

# Test system: DCAMKL3
# Construct: gene DCLK3
# TEST SETTINGS: concentration: 1 μM, replicates: in singlicate; n = 1;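 also: KINOMEscan kinase panel screen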
QUANTITY: %Inh (%)
Answers are plain numbers, in %.

As a guide, the following entries are already answered.
Query: Look up %Inh: O=C(NCCNc1ccnc(Nc2ccc(F)cc2)n1)c1cc2ccccc2s1 [GSK1379874]
Result: 0

Query: Follow-up item: CCc1nc(-c2cccc(C)c2)c(-c2ccnc(NCc3ccccc3)c2)s1
Result: 0

Please look at the following compound next.
Query: Look up %Inh: O=C(Nc1n[nH]c2cc(-c3cccc(F)c3)ccc12)C1CC1 [SB-735464]
Result: 0

====

Please provide measured %Inh for the entries that follow.
# Test system: NIM1
# Construct: gene MGC42105
# TEST SETTINGS: concentration: 1 μM, replicates: in singlicate; n = 1

As a guide, the following entries are already answered.
Query: Look up %Inh: Fc1ccc(-c2nn3c(OCC(F)(F)F)cccc3c2-c2ccncc2)cc1
Result: 0%

Query: Follow-up item: COc1ccc(Nc2nccc(N3CCC(NC(=O)Nc4cc(C)ccc4C)C3)n2)cc1 (stereo not shown)
Result: 7%

Query: Follow-up item: O=C(NOCC1CC1)c1ccc(F)c(F)c1Nc1ccc(I)cc1Cl
Result: 0%

Continuing:
Query: Look up %Inh: CC(C)Oc1ccc2c(-c3ccnc(Nc4ccc(N5CCN(C)CC5)cc4)n3)cnn2n1
Result: 75%

====

# System: PIP5K2C
# Construct: gene PIP4K2C
# TEST SETTINGS: concentration: 1 μM, replicates: in singlicate; n = 1
QUANTITY: %Inh (%)
Numbers only, in %.

As a guide, the following entries are already answered.
Query: Look up %Inh: Cl.Oc1cccc(Nc2ccnc3cc(-c4ccncc4)ccc23)c1
Result: 85

Query: Follow-up item: O=C(Nc1n[nH]c2cc(-c3cccc(F)c3)ccc12)C1CC1
Result: 11

Please look at the following molecule next.
Query: Look up %Inh: N#Cc1ccc(-c2cc(-c3c[nH]nc3-c3ccccn3)ccn2)cc1
Result: 7

====

# System: MAPKAPK2
# TEST SETTINGS: concentration: 1 μM, replicates: in singlicate; n = 1
QUANTITY: %Inh (%)
One number for each entry, in %.

As a guide, the following entries are already answered.
Query: Which %Inh is reported with MAPKAPK2 for this entry: Fc1ccc(-c2nn3c(OCC(F)(F)F)cccc3c2-c2ccncc2)cc1 [GW514784] ?
Result: 0

Query: Follow-up item: Cc1ccc(C(=O)NCC(N)=O)cc1-n1c(C)cc(OCc2ccc(F)cc2F)c(Br)c1=O
Result: 17

Please look at the following compound next.
Query: Which %Inh is reported with MAPKAPK2 for this entry: CC(=O)Nc1ccc(COc2ccc(Nc3ccnc4cc(-c5ccccn5)ccc34)cc2)cc1.Cl [GW440148] ?
Result: 0

====

# Tested on: HPK1
# TEST SETTINGS: concentration: 1 μM, replicates: in singlicate; n = 1
QUANTITY: %Inh (%)
Give bare numbers, in %.

As a guide, the following entries are already answered.
Query: Look up %Inh: CCc1ccnc(/C=C/c2n[nH]c3cc(Sc4ccccc4C(=O)NC)ccc23)c1
Result: 30

Query: Follow-up item: Cc1cn2c(=O)cc(N3CCOCC3)nc2n1Cc1cccc(Cl)c1Cl
Result: 30

Continuing:
Query: Look up %Inh: COC(=O)Nc1nc2cc(Oc3ccc(NC(=O)Nc4cc(F)ccc4F)cc3)ccc2[nH]1.Cl
Result: 30
